Below: a set of entries, each annotated with reported composite z-score.
test system: XIP peptide (Xip251-270) binding; assay: small-molecule binders of XIP peptide, primary screen, biochemical, small-molecule microarray, fluorescence 635/667 nm, 0.1 µg/mL protein (AID 1182); conditions: fluorescent protein binding, 635 nm, higher = more signal, called active from +8 up or from −8 down

compound	experimental_target	composite z-score
O=C(C1N=C(c2ccc(OCCCO)cc2)N(c2ccccc2)O1)N1CCOCC1 (stereo not given)	XIP peptide (Xip251-270) binding	0.254
O=C1c2ccccc2[C@@]2(Cc3ccccc3N(CC(F)(F)F)C2=O)[C@H](c2ccc(CO)cc2)N1Cc1ccccc1Cl	XIP peptide (Xip251-270) binding	0.0764
CCCC[C@@H]1C[C@H]1[C@@H](NC(=O)c1ccco1)c1ccc(Cl)cc1	XIP peptide (Xip251-270) binding	0.593
COCCOC(=O)N1C(=O)[C@@]2(c3ccccc31)[C@H](c1ccccc1OCCO)N1[C@H](c3ccccc3)[C@H](c3ccccc3)OC(=O)[C@H]1[C@@H]2C(=O)Nc1nc2ccccc2s1	XIP peptide (Xip251-270) binding	0.219
CC1CC/C=C\[C@H]2OC34C=CCN(c5ccc(Cl)cc5)C(=O)[C@H]3N(CCO)C(=O)[C@]4(C)C2C(=O)O1 (stereo not given in full)	XIP peptide (Xip251-270) binding	1.21
COC(=O)[C@@]1(Cc2ccc(OC)cc2)[C@H]2c3cc(C(=O)N4CCCC4)n(Cc4ccc(OC)c(OC)c4)c3C[C@H]2CN1C(=O)c1ccccc1	XIP peptide (Xip251-270) binding	1.27
CCCCN1CC=CC23O[C@@H]4/C=C\CCC(C)OC(=O)C4[C@H]2C(=O)N(CCCCCO)[C@@H]3C1=O (stereo not given in full)	XIP peptide (Xip251-270) binding	-0.725
C=CC[C@@]1(C(=O)NCc2ccccc2)N=C(c2ccc(OCCCO)cc2)O[C@@H]1c1ccccc1N=[N+]=[N-]	XIP peptide (Xip251-270) binding	0.0885
Cc1ccc(C(C)CC(O)C2C=CC3C(=O)N(c4ccccc4)C(=O)C3N2Nc2ccc([N+](=O)[O-])cc2)o1 (stereo not given)	XIP peptide (Xip251-270) binding	0.099
O=C1OCCC=C[C@H]2OC34C=CCN(CCN5CCOCC5)C(=O)[C@H]3N(CCCCCCO)C(=O)[C@@H]4C12 (stereo not given in full)	XIP peptide (Xip251-270) binding	0.995
O=C1C2C=CC(C(O)c3ccc(F)cc3)N(Nc3ccccc3F)C2C(=O)N1c1ccccc1 (stereo not given)	XIP peptide (Xip251-270) binding	1.27
O=C1OCCC/C=C\[C@H]2OC34C=CCN(CCN5CCOCC5)C(=O)[C@H]3N(CCCO)C(=O)[C@@H]4C12 (stereo not given in full)	XIP peptide (Xip251-270) binding	0.976
COC(=O)[C@@]1(Cc2ccccc2)[C@H]2c3cc(C(=O)N4CCCC4)n(Cc4nc5ccccc5[nH]4)c3C[C@H]2CN1C(=O)c1ccccc1	XIP peptide (Xip251-270) binding	1.33
COc1ccc(C(O)C2C=CC3C(=O)NC(=O)C3N2Nc2ccccn2)cc1 (stereo not given)	XIP peptide (Xip251-270) binding	-1.2
CCOC(=O)[C@H]1C/C=C/C[C@H](C(=O)OCC)C(=O)O[C@H]2[C@@H](OC)O[C@H](CO)[C@@H](OC(=O)Nc3cccc(F)c3)[C@@H]2OC1=O	XIP peptide (Xip251-270) binding	1.17

* * *

experiment: binders from COS7 lysate, DM2A8 probe, primary screen, torsin A project, cell lysate, small-molecule microarray, fluorescence 635/667 (AID 1065); details: higher = more signal, COS7 lysate expressing mutant human TOR1A

compound	composite z-score
O=C1OCCC/C=C\[C@H]2OC34C=CCN(CCN5CCOCC5)C(=O)[C@H]3N(CCCO)C(=O)[C@@H]4C12 (stereo partly drawn)	0.95
Cc1ccc(S[C@]2(C(=O)NCC(F)(F)F)CC(=O)N(C(C)C)[C@@H]2c2ccc(CO)cc2I)cc1	-0.98
CN(C)C(=O)[C@]1(Cc2ccccc2CN=[N+]=[N-])N=C(c2ccc(OCCCO)cc2)O[C@@H]1c1ccccc1CN=[N+]=[N-]	1.26
CCCC=C(CCC)[C@@H](NC(=O)Oc1ccc(F)cc1)c1ccc(C(=O)OC)cc1	0.175
CCC(CC)C(O)C1C=CC2C(=O)N(C)C(=O)C2N1Nc1ccccc1 (stereo not drawn)	0.219
COc1ccc(C(O)C2C=CC3C(=O)N(c4ccccc4)C(=O)C3N2Nc2ccccc2F)cc1OCc1ccccc1 (stereo not drawn)	-0.217
CN(C)CCCNC(=O)[C@@]1(c2ccc([N+](=O)[O-])cc2)CC(=O)N(C2CCCCC2)[C@@H]1c1ccc(CO)cc1I	1.05
O=C1NC(=O)C2C1C=CC(C(O)C(c1ccccc1)c1ccccc1)N2Nc1ccc(Cl)cc1Cl (stereo not drawn)	-0.471

* * *

system: Sonic hedgehog protein (Shh); test: small-molecule binders of Shh protein, primary screen, biochemical, small-molecule microarray, 635/667 nm fluorescence (AID 1151); settings: small-molecule microarray binding, 635 nm fluorescence; higher = more signal;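 note: Shh protein binding to compounds spotted on small-molecule microarray slides; score combines spot fluorescence intensity with signal-to-noise across triplicate slides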
Returns class 1 if the recorded composite z-score is greater than or equal to 0.2, and class 0 otherwise.

molecule	answer_label
O=C1c2ccccc2[C@](Cc2ccccc2I)(C(=O)NC2CC2)[C@H](c2ccc(CO)cc2)N1Cc1ccccc1	class 0
O=C1OCC=C[C@H]2OC34C=CCN(c5ccc6ccccc6c5)C(=O)[C@H]3N(CCCCCCO)C(=O)[C@@H]4[C@@H]12 (stereo partly specified)	class 0
COc1cc(CO)cc(I)c1O[C@H]1C=C(C(=O)NCCO)C[C@@H](N(CCN2CCOCC2)C(=O)C2CCOC2)[C@@H]1O (stereo partly specified)	class 1
O=C1[C@H]2C=C(Br)[C@H](C[C@@H]2OCCCCO)[C@@]12CO2	class 1
COC(=O)c1c(CC[C@@H](CO)NC(=O)N[C@H](Cn2cc(Cc3ccccc3)nn2)C(C)C)oc(C(C)=O)c1C(=O)OC	class 1
C=CCC(OC(C)=O)[C@@H]1[C@@H](N(Cc2cccc3ccccc23)C(=O)c2ccc(-c3ccccc3)cc2)c2cc(OCCCO)ccc2N1C(=O)Cc1ccc(OC)cc1 (stereo partly specified)	class 0
O=C1c2ccccc2[C@](Cc2ccccc2I)(C(=O)NC2CC2)[C@H](c2ccc(CO)cc2)N1C1CCCCC1	class 1
CC(C)N1C(=O)[C@@]2(Cc3ccccc31)c1ccccc1C(=O)N(C1CCCCC1)[C@H]2c1ccc(CO)cc1	class 1
COc1ccc(CCN2C(=O)[C@@]3(Cc4ccccc42)c2ccccc2C(=O)N(Cc2ccccc2C(F)(F)F)[C@H]3c2ccc(CO)cc2)cc1	class 1
COc1ccc(NN2C(C(O)c3ccc([N+](=O)[O-])cc3)C=CC3C(=O)N(C4CCCCC4)C(=O)C32)cc1 (stereo unspecified)	class 0
CN(C)C(=O)[C@@]1(Cc2ccccc2CN=[N+]=[N-])N=C(c2ccc(OCCCO)cc2)O[C@H]1c1ccccc1	class 0
CN1C(=O)C2C=CC(C(O)c3cc(C(F)(F)F)cc(C(F)(F)F)c3)N(N3CCCCC3)C2C1=O (stereo unspecified)	class 0
COc1ccc(C(=O)Nc2ccc(CN3C(=O)[C@@]4(O[C@@H](CCO)[C@H]([Si](C)(C)c5ccc(OC)cc5)[C@H]4C)c4ccccc43)cc2)cc1	class 1
CCCC=C(CCC)[C@@H](NS(=O)(=O)c1cccs1)c1ccc(C(=O)OC)cc1	class 0
OC([C@@H]1CC(c2ccccc2)=NO1)[C@H]1CC(c2ccccc2)=NO1 (stereo partly specified)	class 1
CC(C)(C)OC(=O)CC[C@]1(C(=O)O)N=C(c2ccc(OCCCO)cc2)O[C@H]1c1ccccc1N=[N+]=[N-]	class 0

* * *

assay: cell viability in Huh7 cells, primary screen, cytotoxicity control for HCV replication inhibitor project, CellTiter-Glo luminescence, basal, 48 h (AID 1143); conditions: Huh7 HCV replicon, higher = more signal, called active from +8 up or from −8 down;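 note: Huh7 hepatoma cells carrying a hepatitis C replication reporter with no stimulus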
Entries are grouped by z-score into these classes: class 1 (below -2), class 2 (-2 to below -0.1), class 3 (-0.1 or more)

molecule	answer_label
CCC(CC)C(O)C1C=CC2C(=O)N(C)C(=O)C2N1Nc1ccccc1 (centres undefined)	class 3
C=CCN1C(=O)[C@@]2(O[C@@H](CCO)[C@H]([Si](C)(C)c3ccc(OC)cc3)[C@H]2C)c2cc(NC(=O)c3ccc(OC)cc3)ccc21	class 1
Cc1ccc(S[C@]2(C(=O)NC3CC3)CC(=O)N(C3Cc4ccccc4C3)[C@@H]2c2ccc(CO)cc2)cc1	class 2
C=C(COC)/C(=C/C[C@@H](OC(C)=O)c1ccc(OCCO)cc1)c1cc(C(=O)OC)ccc1OC	class 2
CCN(CC)c1ccc(N2CC=CC34O[C@@H]5/C=C\CCC(C)OC(=O)C5[C@H]3C(=O)N(C(CO)C(C)C)[C@@H]4C2=O)cc1 (some centres undefined)	class 2
O=C1NCC(=O)N2[C@@H]1C[C@@H](C(=O)O)[C@H]2c1cccc(OCCO)c1	class 3
C=CCOC(=O)[C@@H]1[C@H]2C(=O)O[C@H](c3ccccc3)[C@H](c3ccccc3)N2[C@H](c2ccc(OCCOC(=O)[C@@H]3C[C@@H]4C(=O)N[C@@H](CCCC[N+](C)(C)C)C(=O)N4[C@@H]3c3cccc(OCCO)c3)cc2)[C@@]12C(=O)Nc1ccc(I)cc12	class 1
O=C1c2ccccc2[C@@]2(Cc3ccccc3N(CC(F)(F)F)C2=O)[C@H](c2ccc(CO)cc2)N1Cc1ccccc1Cl	class 3
CCCCCN1CC=CC23O[C@@H]4/C=C\CCCOC(=O)C4[C@H]2C(=O)N(CCCO)[C@@H]3C1=O (some centres undefined)	class 3
CCCC=C(CCC)[C@@H](NC(=O)Oc1ccc(F)cc1)c1ccc(C(=O)OC)cc1	class 1
C=C/C=C/[C@H]1C(=C)CN([C@@H](Cc2ccccc2)C(=O)OC)[C@@H]1[C@H](O)Cc1ccccc1	class 2
CC(C)c1ccc(NN2C(C(O)c3cc(C(F)(F)F)cc(C(F)(F)F)c3)C=CC3C(=O)N(c4ccccc4)C(=O)C32)cc1 (centres undefined)	class 1
COCCOC(=O)N1C(=O)[C@@]2(c3ccccc31)[C@H](c1ccc(O)cc1)N1[C@H](c3ccccc3)[C@H](c3ccccc3)OC(=O)[C@H]1[C@@H]2C(=O)NC[C@H](O)c1ccccc1	class 2
C=C(CCCC)C(=O)CC[C@H](OC(=O)c1cccnc1)c1ccccc1OCCO	class 1
COC(=O)[C@@]1(Cc2ccccc2)[C@H]2c3cc(C(=O)N4CCCC4)n(Cc4nc5ccccc5[nH]4)c3C[C@H]2CN1C(=O)c1ccccc1	class 1
COc1ccc(C(O)C2C=CC3C(=O)N(C)C(=O)C3N2N2CCCCC2)c2ccccc12 (centres undefined)	class 3
COc1ccc(C(O)C2C=CC3C(=O)NC(=O)C3N2Nc2ccccn2)cc1 (centres undefined)	class 3
COCCn1c(C(=O)N2CCCC2)cc2c1C[C@H]1CN(C(=O)c3ccccc3)[C@@](Cc3ccc(F)cc3)(C(=O)OC)[C@@H]21	class 2
COC(=O)c1c(CC[C@@H](CO)NC(=O)N[C@H](Cn2cc(Cc3ccccc3)nn2)C(C)C)oc(C(C)=O)c1C(=O)OC	class 1
[N-]=[N+]=NCc1ccccc1C[C@@]1(C(=O)NCC(O)CO)N=C(c2ccc(OCCCO)cc2)O[C@@H]1c1ccccc1N=[N+]=[N-] (some centres undefined)	class 1
CC(=O)N1Cc2ccccc2C[C@@]2(COC(c3ccc(OCCCO)cc3)=N2)C1=O	class 1
CCOC(=O)C1=CCC(c2ccccc2)N(S(=O)(=O)CC[Si](C)(C)C)C1 (centres undefined)	class 1
CCc1oc(CC[C@@H](CO)NC(=O)NCCn2cc(C3(O)CCCCC3)nn2)c(C(=O)OC)c1C(=O)OC	class 2
O=C1OCCC/C=C\[C@H]2OC34C=CCN(CCN5CCOCC5)C(=O)[C@H]3N(CCCO)C(=O)[C@@H]4C12 (some centres undefined)	class 3
C=C(CCCC)C(=O)CC[C@@H](OC(=O)c1cccnc1)c1ccc(CO)o1	class 3
C=CCNC(=O)[C@@H]1[C@H]2C(=O)O[C@H](c3ccccc3)[C@H](c3ccccc3)N2[C@H](c2ccc(OCCO)cc2)[C@@]12C(=O)Nc1ccc(C#CCCO)cc12	class 2
CN1C(=O)[C@]2(Cc3ccccc3)N=C(c3ccc(OCCCO)cc3)O[C@@H]2c2ccccc21	class 1
CCOC(=O)C[C@H]1[C@H](OC(=O)Cc2ccc3c(c2)OCO3)[C@@H](NC(=O)c2ccc(-c3ccccc3)cc2)c2cc(OCCCO)ccc2N1C(=O)Cc1ccc(OC)cc1	class 2
